- TARGET_OR_TEST_SYSTEM: Muscarinic acetylcholine receptor M4 (Homo sapiens) (UniProt P08173)
- Sequence (P08173 whole entry, looked up): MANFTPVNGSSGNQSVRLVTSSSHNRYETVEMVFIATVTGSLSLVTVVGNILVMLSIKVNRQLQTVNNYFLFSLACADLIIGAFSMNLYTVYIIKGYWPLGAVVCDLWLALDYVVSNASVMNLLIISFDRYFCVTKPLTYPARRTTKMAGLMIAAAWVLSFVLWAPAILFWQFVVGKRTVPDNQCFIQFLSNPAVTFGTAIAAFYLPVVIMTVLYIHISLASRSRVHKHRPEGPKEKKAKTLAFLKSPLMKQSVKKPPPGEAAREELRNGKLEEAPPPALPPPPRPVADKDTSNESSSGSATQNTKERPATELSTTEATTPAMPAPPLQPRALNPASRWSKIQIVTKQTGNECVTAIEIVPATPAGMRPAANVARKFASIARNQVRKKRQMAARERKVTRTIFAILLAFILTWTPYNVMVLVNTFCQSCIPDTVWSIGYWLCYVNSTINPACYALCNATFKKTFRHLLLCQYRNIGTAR
- PROTOCOL_DESCRIPTION: M4-linked GIRK flux change, two-sided – cell-based, HEK293 M4/GIRK, thallium flux, BTC-AM, M4 allosteric agonist project, primary screen (AID 625);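 further: thallium influx through GIRK channels coupled to M4 in HEK293 cells with BTC-AM dye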
- MEASUREMENT_CONTEXT: at 10 µM, actives lie on both sides
The class of a record is decided solely by its measured fluorescence slope; consult b0 = under 0.005, b1 = from 0.005 up to 0.006, b2 = 0.006 and over

See these solved cases before continuing.
- COMPOUND: "COc1cc(OC)cc(C(=O)NCCN2CCOCC2)c1"
  CATEGORY: "b1"
- COMPOUND: "O=C(Nc1ccccc1)N(CCN1CCOCC1)Cc1ccccc1F"
  CATEGORY: "b0"
- COMPOUND: "COc1ccc2cc(C#N)c(NC(C)C)nc2c1"
  CATEGORY: "b1"
- COMPOUND: "O=C(O)C1CC(=O)N(c2ccc(OCc3ccccc3Cl)cc2)C1 (stereo unspecified)"
  CATEGORY: "b0"

Which class does `COc1cc(C)nc(OCCNC(=O)COc2ccc(Cl)cc2C)n1` fall in?
b2

Just checking, what class would you give CCC(=O)N1CCNC(=O)C1CC(=O)Nc1ccc(C)c(Cl)c1 (stereo unspecified) here?
b1

Bin this entry: O=C1c2ccccc2C(O)(Cc2ccccc2)N1Cc1ccco1 (stereo unspecified)
b1

Kindly identify the class of `COc1cc(-c2nc(S(=O)(=O)c3ccccc3)c(N3CCOCC3)o2)cc(OC)c1OC` .
b0

Lab note: which band did `Cc1ccc2ncnc(NCCCN3CCOCC3)c2c1` land in?
b0

* * *

- PROTOCOL_DESCRIPTION: blockers of RIG-like receptor reporter activation – cell-based, Sendai virus stimulus, luciferase, 10K MLSCN set, TLR/RLR signaling modifier project, primary screen (AID 602276);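 further: firefly luciferase from ISG56 promoter only with Renilla not read in this screen; 0% = Sendai virus plus DMSO and 100% = medium plus DMSO without virus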
- MEASUREMENT_CONTEXT: HEK293 RL24 IRF3 luciferase reporter, at 10 µM, stronger effect = higher value
Can you tell me inhibition for the items I'm about to list?
Numbers only, in %.

- MOLECULE: "COc1ccccc1OCc1nc2ccccc2[nH]1"
  inhibition / %: -14.3

Go through the items and report each one's inhibition.
1. O=C(COC(=O)CCc1c[nH]c2ccccc12)NC1CCS(=O)(=O)C1 (stereo unspecified)
2. Cc1ccc(N(C(=O)C2CCC(=O)N2)C2(C(=O)NC3CCCCC3)CCCCC2)cc1 (stereo unspecified)
3. COC(=O)Cn1ncc2c(C)n(Cc3ccccc3)c(C)c2c1=O
4. COc1ccc(C(=O)COC(=O)CCn2nnc(-c3cccs3)n2)cc1
5. O=C1NC(=O)C(CC(=O)N(c2ccccc2)C2(C(=O)NC3CCCC3)CCCCC2)N1 (stereo unspecified)

1. 4.42
2. -4.63
3. -29.4
4. -6.55
5. 14.9

* * *

- PROTOCOL_DESCRIPTION: endothelial E-selectin expression blockers – imaging, HUVEC, immunofluorescence, MLSMR starter and 10KST1 sets, primary screen (AID 487);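 further: 100% = median nuclei count of all wells on the same plate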
- MEASUREMENT_CONTEXT: HUVEC TNFalpha-induced E-selectin immunofluorescence imaging, at 2 µM; measured here: cell number, toxicity
QUANTITY_KIND: nuclei count (%)
Give bare numbers, in %.

- MOLECULE: "O=C(COc1nnc2ccccn12)N1CCN(S(=O)(=O)c2ccccc2)CC1"
  nuclei count, %: 122
- MOLECULE: "O=C(Nc1cccc(F)c1)c1ccc2c(c1)OCO2"
  nuclei count, %: 85
- MOLECULE: "CC(=O)Nc1ccccc1OCC(=O)c1cc(C)n(Cc2cccs2)c1C"
  nuclei count, %: 107
- MOLECULE: "O=C(NCc1cccs1)C1CC(c2ccccc2O)=NO1 (configuration not stated)"
  nuclei count, %: 108
- MOLECULE: "O=C(CN(Cc1ccc(F)cc1)C(=O)c1ccco1)NCc1ccc(F)cc1"
  nuclei count, %: 130

I have 2 molecules here; please give me nuclei count for each one.
1. O=C(NCC(=O)N(CCc1ccccc1)C(C(=O)NC1CCCC1)c1cccnc1)c1ccco1 (configuration not stated)
2. COC(=O)C1=CN(C(C)C)C=C(C(=O)OC)C1c1cc2c(cc1Br)OCO2

1: 141; 2: 78.3

Batch request: nuclei count per item, same order as input.
1. Cc1cc(C)c(NC2=NCC(=O)N2C2CCCCC2)c(C)c1
2. CCn1c(CSc2nnc(-c3cccnc3)n2-c2ccccc2C)nc2cc(C(=O)O)ccc21
3. Cc1nn(C(=O)c2ccccc2)c2c1C(=O)CC(C)(C)C2
4. O=C(CSc1nnnn1C1CCCC1)NCc1ccc2c(c1)OCO2
5. COc1cccc(N(C(=O)c2ccco2)C(C(=O)NC2CCCC2)c2ccc(N(C)C)cc2)c1 (configuration not stated)
6. Cc1cc(C)n(Cc2nc3ccccc3n2C)n1
7. CC(C)CNC(=O)C1C2C=CC(C2)C1C(=O)O (configuration not stated)

114
161
112
138
77.9
119
128

Field: nuclei count. Fill in for each record below.
1. CCn1cc(C(=O)NCCC2=CCCCC2)c(=O)c2cc(S(=O)(=O)N(C)C)ccc21
2. O=C(NCc1nnc(SCC(=O)N2CCCCCC2)o1)c1ccco1
3. COc1ccc(NCc2nnc(SCC(=O)Nc3cc(C)cc(C)c3)o2)cc1
4. O=c1[nH]c2cc3c(cc2cc1C(c1nnnn1Cc1ccccc1)N1CCCc2ccccc21)OCO3 (configuration not stated)
5. COc1ccc(Cc2nc(-c3ccc(Br)cc3)no2)cc1
6. COc1ccc(NS(=O)(=O)c2coc(C(N)=O)c2)cc1Cl
7. CNc1ccc(C(O)(C(F)(F)F)C(F)(F)F)cc1C(O)(C(F)(F)F)C(F)(F)F

93.2
106
79.5
108
107
116
92.8

For the molecule `CCCCCCNC(=O)c1c(N)n(/N=C/c2ccco2)c2nc3ccccc3nc12` , give its measured nuclei count value.
104
